Assign pKi to each entry below.
molecular target: Sigma 2 (h) (Homo sapiens (Human), UniProt Q5BJF2); assay: Sigma-2 binding assay; settings: [3H]DTG (+1 μM (+)pentazocine), Jurkat cells; read-out: Sigma-2 Ki
Sequence (Q5BJF2 whole entry): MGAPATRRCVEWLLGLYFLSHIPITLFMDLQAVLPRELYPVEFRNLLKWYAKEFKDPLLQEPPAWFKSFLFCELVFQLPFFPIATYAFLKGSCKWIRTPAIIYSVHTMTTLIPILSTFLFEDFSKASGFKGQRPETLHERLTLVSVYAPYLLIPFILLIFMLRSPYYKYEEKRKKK
pKi: −log10 of the molar value.

Input line: Query pKi for CCCN1CCC(C)(C)c2ccc(-c3ccc(C(F)(F)F)cc3)cc2C1 [Compound 12]
Output line: 7.00 to 7.30

Input line: Check the records and state pKi for CC1(C)CN(CCCO)Cc2cc(-c3ccc(C(F)(F)F)cc3)ccc21 [Compound 5]
Output line: 6.30 to 7.00

Input line: Write down pKi measured for item CC1(C)CCN(C(=O)C2CCCC2)Cc2cc(N3CCN(C4CCCC4)CC3)ccc21 [Compound 73]
Output line: 7.30 to 8.30
